Tested on: PPARg:RXRa 90nM:30nM, anti-RXR (NR concentration 90 nM, RXRa partner concentration 30 nM)
Assay: PBM binding z-score (relative to random genomic background probes); higher = stronger binding; sequences stand for … in GC…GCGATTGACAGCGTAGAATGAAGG
// false (0) strictly below 2 in PBM binding z-score; true (1) otherwise

Prompt line: Threshold query (PBM binding z-score >= 2) on CCGACTGGGGCAGAAAGCTTACCATACCATCCGG
Response line: false (0)

Prompt line: Threshold query (PBM binding z-score >= 2) on CGTCCAAGGTCAATGCTAGGTAAGTGAAAGCATT
Response line: true (1)

Prompt line: Threshold query (PBM binding z-score >= 2) on GCTAGTTGGTCAGTAAAAGGTCACACGCCGGTCG
Response line: true (1)

Prompt line: Threshold query (PBM binding z-score >= 2) on GCTTACGGGTCAAAGGTAATAGCATGAATAGAAT
Response line: true (1)

Prompt line: Threshold query (PBM binding z-score >= 2) on GATACAGGGTCAAGGCAAGAGTACGCGTATTGAT
Response line: true (1)

Prompt line: Threshold query (PBM binding z-score >= 2) on CCGACTGGGGGAAGGTTACCATAACGCACAGCCA
Response line: false (0)

Prompt line: Threshold query (PBM binding z-score >= 2) on TCTTTTAGATCAAAGGTTAAGAAAGCCGAAGCCT
Response line: true (1)

Prompt line: Threshold query (PBM binding z-score >= 2) on ACTATTAGTTGAGACGGGGGCAACCGATAGGTTG
Response line: false (0)

Prompt line: Threshold query (PBM binding z-score >= 2) on ACCAGCAGGCCAAGTTTGGGTCACTCAAACAAAG
Response line: false (0)

Prompt line: Threshold query (PBM binding z-score >= 2) on AGAACGAGTGCACGCTGAGTTGATAGCAGAGTAG
Response line: false (0)

Prompt line: Threshold query (PBM binding z-score >= 2) on CCGACTGGGGCAGCAAGGTTACCATACCATCCGG
Response line: false (0)

Prompt line: Threshold query (PBM binding z-score >= 2) on GCGACTGGGGCATCTGCAGGTTACCATAACTTAA
Response line: false (0)

These data points were gathered from the supplement of paper PMC6555819.
